Just for reference, patent US12723255B2 is where these values come from.

- TEST SUMMARY: kinetic analysis, non-endpoint assay at 23° C.
- Format: biochemical
- CONDITION PARAMETERS: Table 10 series, unit as defined, read-out: Km 2,4-D
Kindly state Km for each of the entries shown.
Numbers only, in µM.

The examples below pair each entry with its known result.
1. MON-HT17: engineered oxygenase protein, amino acid sequence SEQ ID NO:51 (protein) MHAALTPLTNKYRFIDVQPLTGVLGAEITGVDLREPLDDSTWNEILDAFHTYQVIYFPGQAITNEQHIAFSRRFGPVDPVPILKSIEGYPEVQMIRREANESSRYIGDDWHADSTFLDAPPAAVVMRAIEVPEYGGDTGFLSMYSAWETLSPTMQATIEGLNVVHSATKVFGSLYQATNWRFSNTSVKVMDVDAGDRETVHPLVVTHPVTGRRALYCNQVYCQKIQGMTDAESKSLLQFLYEHATQFDFTCRVRWKKDQVLVWDNLCTMHRAVPDYAGKFRYLTRTTVAGDKPSR ... 70
2. MON-HT15: engineered oxygenase protein, amino acid sequence SEQ ID NO:49 (protein) MHAALTPLTNKYRHIDVQPLTGVLGAEITGVDLREPLDDSTWNEILDAFHTYQVIYFPGQAITNEQHIAFSRRFGPVDPVPILKSIEGYPEVQMIRREANESSRYIGDDWHADSTFLDAPPAAVVMRAIEVPEYGGDTGFLSMYSAWETLSPAMQATIEGLNVVHSATKVFGSLYQATNWRFSNTSVKVMDVDAGDRETVHPLVVTHPVTGRRALYCNQIYCQKIQGMTDAESKSLLQFLYEHATQFDFTCRVRWKKDQVLVWDNLCTMHRAVPDYAGKFRYLTRTTVAGDKPSR ... 70

Next molecule, please.
Find the recorded Km belonging to MON-HT1: engineered oxygenase protein, amino acid sequence SEQ ID NO:14 (protein) MHAALTPLTNKYRFIDVQPLTGVLGAEITGVDLREPLDDSTWNEILDAFHTYQVIYFPGQAITNEQHIAFSRRFGPVDPVPILKSIEGYPEVQMIRREANESSRFIGDDWHTDSTFLDAPPAAVVMRAIEVPEYGGDTGFLSMYSAWETLSPTMQATIEGLNVVHSATKVFGSLYQATNWRFSNTSVKVMDVDAGDRETVHPLVVTHPVTGRRALYCNQVYCQKIQGMTDAESKSLLQFLYEHATKFDFTCRVRWKKDQVLVWDNLCTMHRAVPDYAGKFRYLTRTTVAGDKPSR and report it. 30
